Cited source for all entries: patent US20190031618A1

- testedOn: Human CB2R (Cannabinoid receptor 2) (Homo sapiens)
- methodSummary: CB-2 in vitro cAMP (HTRF) assay
- conditionInfo: HEK cells, cAMP HTRF, 250 nM forskolin; mean where tested more than once; read-out: CB2 HEK_cAMP EC50
- Description: CB1 and CB2 receptors are Gi-coupled GPCR. Activation of CB1 and CB2 receptors results in a decrease in cAMP production. An inverse agonist of the CB1 or CB2 receptor results in the opposite effect, an increase of cAMP production. The principle of this assay is based on HTRF® technology (Homogeneous Time-Resolved Fluorescence). […] The tracer binding is quantified by a Mab anti-cAMP labeled with Eu3+TBP-NHS Cryptate (supplied as part of the assay kit). […]
Rule: EC50 below 6 µM gives y, anything at or above gives n.

Example entries and their recorded answers appear below.
cpdSmiles	testedOn	labelValue
O=C(O)c1ccc(-c2cccc(CCn3c(C4CC4)nc4ccc(C(c5ccc(Cl)cc5)c5ccc(Cl)cc5)cc43)c2)cc1	Human CB2R (Cannabinoid receptor 2) (Homo sapiens)	n
O=C(O)[C@H]1CC[C@H](n2c(C3CC3)nc3ccc(C(c4ccc(Cl)cc4)c4ccc(Cl)cc4)cc32)CC1	Human CB2R (Cannabinoid receptor 2) (Homo sapiens)	n
CCc1nc2ccc(C(O)(c3ccc(Cl)cc3)c3ccc(Cl)cc3)cc2n1C1CCN(S(=O)(=O)C(F)(F)F)CC1	Human CB2R (Cannabinoid receptor 2) (Homo sapiens)	n
NC(=O)[C@H]1CC[C@@H](n2c(C3CC3)nc3ccc(C(c4ccc(Cl)cc4)c4ccc(Cl)cc4)cc32)CC1	Human CB2R (Cannabinoid receptor 2) (Homo sapiens)	n
CCOC(=O)COc1cccc(Cn2c(C3CC3)nc3ccc(C(c4ccc(Cl)cc4)c4ccc(Cl)cc4)cc32)c1	Human CB2R (Cannabinoid receptor 2) (Homo sapiens)	y

Regarding `O=C(O)c1cccc(OCCN2CCC(n3c(C4CC4)nc4ccc(C(c5ccc(Cl)cc5)c5ccc(Cl)cc5)cc43)CC2)c1` , kindly confirm whether its EC50 is beneath 6 µM.
y

---

- testedOn: Human CB2R (Cannabinoid receptor 2) (Homo sapiens, UniProt P34972)
- Sequence (P34972 whole entry): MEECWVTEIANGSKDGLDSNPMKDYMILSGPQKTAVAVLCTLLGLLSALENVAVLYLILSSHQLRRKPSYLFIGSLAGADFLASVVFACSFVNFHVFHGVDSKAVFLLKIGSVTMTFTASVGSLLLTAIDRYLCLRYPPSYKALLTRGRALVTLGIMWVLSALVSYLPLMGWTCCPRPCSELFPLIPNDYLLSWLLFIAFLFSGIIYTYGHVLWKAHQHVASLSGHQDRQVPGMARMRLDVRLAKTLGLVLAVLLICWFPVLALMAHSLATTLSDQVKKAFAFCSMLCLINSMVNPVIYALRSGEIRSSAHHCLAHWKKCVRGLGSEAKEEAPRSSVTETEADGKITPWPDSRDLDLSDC
- methodSummary: CB-2 in vitro cAMP (HTRF) assay
- Assay type: cell-based
- conditionInfo: HEK cells, cAMP HTRF, 250 nM forskolin; mean where tested more than once; read-out: CB2 HEK_cAMP EC50
reportedProperty: pEC50
pEC50 field: float, defined as -log10 of concentration (mol/L).

// below: answered compounds
compound	testedOn	reportedProperty	recordedResult
CCc1nc2ccc(C(c3ccc(Cl)cc3)c3ccc(Cl)cc3)cc2n1CC1CCN(S(=O)(=O)C(F)(F)F)CC1	Human CB2R (Cannabinoid receptor 2) (Homo sapiens, UniProt P34972)	pEC50	5.27
O=S(=O)(c1ccccc1)N1CCC(n2c(C3CC3)nc3ccc(C(c4ccc(Cl)cc4)c4ccc(Cl)cc4)cc32)CC1	Human CB2R (Cannabinoid receptor 2) (Homo sapiens, UniProt P34972)	pEC50	6.02
O=S(=O)(N1CCC(Cn2c(C3CC3)nc3ccc(C(c4ccc(Cl)cc4)c4nccs4)cc32)CC1)C(F)(F)F (stereo not drawn)	Human CB2R (Cannabinoid receptor 2) (Homo sapiens, UniProt P34972)	pEC50	5.41

I am curious: what pEC50 value has been reported for `COC(=O)c1cccc(OCCn2c(C3CC3)nc3ccc(C(c4ccc(Cl)cc4)c4ccc(Cl)cc4)cc32)c1` ?
5.48

Please give the result for `O=C(O)COc1cccc(N2CCC(n3c(C4CC4)nc4ccc(C(c5ccc(Cl)cc5)c5ccc(Cl)cc5)cc43)CC2)c1` too.
5.10

// query: `NC(=O)c1ccccc1S(=O)(=O)N1CCC(n2c(C3CC3)nc3ccc(C(c4ccc(Cl)cc4)c4ccc(Cl)cc4)cc32)CC1`
6.46

Request: `COC(=O)CN1CCC(n2c(C3CC3)nc3ccc(C(c4ccc(Cl)cc4)c4ccc(Cl)cc4)cc32)CC1`
5.63

# iterate: `O=C(O)c1cccc(-c2ccc(CCn3c(C4CC4)nc4ccc(C(c5ccc(Cl)cc5)c5ccc(Cl)cc5)cc43)cc2)c1`
5.14
